Below, each entry is listed alongside its reported ED50.
tested on: Mus musculus; test: Analgesic activity against acetic acid induced writhing test in mouse after peroral administration; type: functional; settings: Mus musculus, po; read-out: ED50

Compound: CCCC(=O)OC(CC)c1nc2c(C(F)(F)F)cccc2c(O)c1C(=O)Nc1nccs1 (configuration not stated)
Qualifier sign: =
ED50 / mg/kg: 4
//
Compound: C[C@H](N)c1nc2c(C(F)(F)F)cccc2c(O)c1C(=O)Nc1nccs1
Qualifier sign: =
ED50 / mg/kg: 30
//
Compound: O=C(NC1CCCCC1)c1cnc2c(C(F)(F)F)cccc2c1O
Qualifier sign: >
ED50 / mg/kg: 50
//
Compound: CC(O)c1nc2c(C(F)(F)F)cccc2c(O)c1C(=O)Nc1nccs1 (configuration not stated)
Qualifier sign: =
ED50 / mg/kg: 1.2
//
Compound: O=C(Nc1nccs1)c1c(C(F)(F)F)nc2ccc(Cl)cc2c1O
Qualifier sign: >
ED50 / mg/kg: 25
//
Compound: O=C(Nc1nc2ccccc2s1)c1c(C(Cl)Cl)nc2c(C(F)(F)F)cccc2c1O
Qualifier sign: >
ED50 / mg/kg: 25
//
Compound: O=C(Nc1nccs1)c1cnc2cc(Cl)ccc2c1O
Qualifier sign: >
ED50 / mg/kg: 100

====

system: Mus musculus; test: Analgesic activity against acetic acid induced writhing test in mouse after peroral administration; type: functional; details: Mus musculus, po; read-out: ED50

Molecule: O=C(Nc1ncco1)c1c(C(F)(F)F)nc2c(C(F)(F)F)cccc2c1O
Qualifier sign: >
ED50 [mg/kg]: 100
--
Molecule: CC(O)c1nc2c(C(F)(F)F)cccc2c(O)c1C(=O)Nc1ccccn1 (stereo not given)
Qualifier sign: >
ED50 [mg/kg]: 50
--
Molecule: O=C(Nc1nccs1)c1c(C(F)(F)F)nc2cccc(C(F)(F)F)c2c1O
Qualifier sign: =
ED50 [mg/kg]: 20
--
Molecule: O=C(Nc1nccs1)c1c(C(F)(F)F)nc2cc(Cl)ccc2c1O
Qualifier sign: >
ED50 [mg/kg]: 25
--
Molecule: CC[C@H](N)c1nc2c(C(F)(F)F)cccc2c(O)c1C(=O)Nc1nccs1
Qualifier sign: =
ED50 [mg/kg]: 35

====

Catalogue of molecules with associated ED40
system: Rattus norvegicus; assay: Antiinflammatory activity against carrageenan-induced foot edema in rat after peroral administration; format: functional; details: po

Molecule: CCC(=O)OC(CC)c1nc2c(C(F)(F)F)cccc2c(O)c1C(=O)Nc1nccs1 (stereo in doubt; 102)
Scale unit: mg/kg
Qualifier sign: =
ED40: 4
//
Molecule: CCC(O)c1nc2c(C(F)(F)F)cccc2c(O)c1C(=O)Nc1nccs1 (stereo in doubt; 89)
Scale unit: mg/kg
Qualifier sign: =
ED40: 5
//
Molecule: O=C(Nc1nccs1)c1c(C(Cl)Cl)nc2c(C(F)(F)F)cccc2c1O
Scale unit: mg/kg
Qualifier sign: >
ED40: 100
//
Molecule: CC[C@H](N)c1nc2c(C(F)(F)F)cccc2c(O)c1C(=O)Nc1nccs1
Scale unit: mg/kg
Qualifier sign: =
ED40: 10
//
Molecule: CN1C(C(=O)Nc2ccccn2)=C(O)c2ccccc2S1(=O)=O
Scale unit: mg/kg
Qualifier sign: =
ED40: 8

====

test system: Mus musculus; test: Analgesic activity against acetic acid induced writhing test in mouse after peroral administration; type: functional; settings: Mus musculus, po; read-out: ED50
ED50: recorded values

Molecule: CC(C)Cc1nc2c(C(F)(F)F)cccc2c(O)c1C(=O)Nc1nccs1
System: Mus musculus
Scale unit: mg/kg
Qualifier sign: =
ED50: 30
--
Molecule: CC(C)c1nc2c(C(F)(F)F)cccc2c(O)c1C(=O)Nc1nccs1
System: Mus musculus
Scale unit: mg/kg
Qualifier sign: =
ED50: 5
--
Molecule: O=C(Nc1nccs1)c1cnc2c(OC(F)(F)F)cccc2c1O
System: Mus musculus
Scale unit: mg/kg
Qualifier sign: >
ED50: 50
--
Molecule: CCC(OC(=O)/C=C/c1ccccc1)c1nc2c(C(F)(F)F)cccc2c(O)c1C(=O)Nc1nccs1 (configuration not stated)
System: Mus musculus
Scale unit: mg/kg
Qualifier sign: >
ED50: 100
--
Molecule: Cn1ccnc1NC(=O)c1cnc2c(C(F)(F)F)cccc2c1O
System: Mus musculus
Scale unit: mg/kg
Qualifier sign: =
ED50: 16
--
Molecule: O=C(Nc1nccs1)c1c(C(F)(F)F)nc2c(F)cccc2c1O
System: Mus musculus
Scale unit: mg/kg
Qualifier sign: =
ED50: 5
--
Molecule: O=C(Nc1nccs1)c1c(Cc2ccccc2)nc2c(C(F)(F)F)cccc2c1O
System: Mus musculus
Scale unit: mg/kg
Qualifier sign: =
ED50: 40
--
Molecule: O=C(Nc1nccs1)c1cnc2ccc(Cl)cc2c1O
System: Mus musculus
Scale unit: mg/kg
Qualifier sign: =
ED50: 50
--
Molecule: CCC(OC(=O)c1ccccc1)c1nc2c(C(F)(F)F)cccc2c(O)c1C(=O)Nc1nccs1 (configuration not stated)
System: Mus musculus
Scale unit: mg/kg
Qualifier sign: >
ED50: 100
--
Molecule: CCCc1nc2c(C(F)(F)F)cccc2c(O)c1C(=O)Nc1nccs1
System: Mus musculus
Scale unit: mg/kg
Qualifier sign: =
ED50: 15
--
Molecule: O=C(Nc1nccs1)c1c(C(F)(F)F)nc2c(C(F)(F)F)cccc2c1O
System: Mus musculus
Scale unit: mg/kg
Qualifier sign: =
ED50: 0.5
--
Molecule: O=C(Nc1nccs1)c1cnc2c(C(F)(F)F)cccc2c1O
System: Mus musculus
Scale unit: mg/kg
Qualifier sign: =
ED50: 5
--
Molecule: CC(C)c1ccc2ncc(C(=O)Nc3nccs3)c(O)c2c1
System: Mus musculus
Scale unit: mg/kg
Qualifier sign: =
ED50: 25
--
Molecule: CC[C@H](NC(C)=O)c1nc2c(C(F)(F)F)cccc2c(O)c1C(=O)Nc1nccs1
System: Mus musculus
Scale unit: mg/kg
Qualifier sign: =
ED50: 5
--
Molecule: COc1ccc2nc(C(F)(F)F)c(C(=O)Nc3nccs3)c(O)c2c1
System: Mus musculus
Scale unit: mg/kg
Qualifier sign: =
ED50: 30
--
Molecule: CCc1nc2c(C(F)(F)F)cccc2c(O)c1C(=O)Nc1nccn1C
System: Mus musculus
Scale unit: mg/kg
Qualifier sign: =
ED50: 50
--
Molecule: O=C(Nc1nccs1)c1c(CCl)nc2c(C(F)(F)F)cccc2c1O
System: Mus musculus
Scale unit: mg/kg
Qualifier sign: =
ED50: 25
--
Molecule: O=C(Nc1ccccc1)c1cnc2c(C(F)(F)F)cccc2c1O
System: Mus musculus
Scale unit: mg/kg
Qualifier sign: >
ED50: 50
--
Molecule: CC(O)c1nc2ccccc2c(O)c1C(=O)Nc1nccs1 (configuration not stated)
System: Mus musculus
Scale unit: mg/kg
Qualifier sign: >
ED50: 100
--
Molecule: O=C(Nc1nccs1)c1c(C(F)(F)C(F)(F)F)nc2c(C(F)(F)F)cccc2c1O
System: Mus musculus
Scale unit: mg/kg
Qualifier sign: =
ED50: 20
--
Molecule: O=C(Nc1nccs1)c1c(C(F)(F)F)nc2c(SC(F)(F)F)cccc2c1O
System: Mus musculus
Scale unit: mg/kg
Qualifier sign: =
ED50: 4
--
Molecule: O=C(Nc1nccs1)c1cnc2c(Cl)cccc2c1O
System: Mus musculus
Scale unit: mg/kg
Qualifier sign: =
ED50: 100

====

tested on: Mus musculus; assay: Analgesic activity against acetic acid induced writhing test in mouse after peroral administration; type: functional; conditions: Mus musculus, po; read-out: ED50
Observable: ED50 (mg/kg)

Molecule: Cc1nc2c(C(F)(F)F)cccc2c(O)c1C(=O)Nc1nccs1
Qualifier sign: =
Recorded measurement: 4

Molecule: CCCC(O)c1nc2c(C(F)(F)F)cccc2c(O)c1C(=O)Nc1nccs1 (stereo unspecified)
Qualifier sign: =
Recorded measurement: 20

Molecule: O=C(Nc1nccs1)c1c(C(F)(F)F)nc2c(Cl)cccc2c1O
Qualifier sign: =
Recorded measurement: 2

Molecule: O=C(Nc1nccs1)c1c(C(Cl)Cl)nc2ccccc2c1O
Qualifier sign: >
Recorded measurement: 25

Molecule: O=C(Nc1nccs1)c1c(C(Cl)Cl)nc2ccc(Cl)cc2c1O
Qualifier sign: =
Recorded measurement: 25

Molecule: O=C(NC1=NCCS1)c1cnc2c(C(F)(F)F)cccc2c1O
Qualifier sign: =
Recorded measurement: 15

Molecule: O=C(Nc1nccs1)c1c(C(Cl)Cl)nc2c(C(F)(F)F)cccc2c1O
Qualifier sign: =
Recorded measurement: 1.1

Molecule: O=C(Nc1nccs1)c1c(C(F)(F)F)nc2cc(C(F)(F)F)ccc2c1O
Qualifier sign: =
Recorded measurement: 5

Molecule: Cn1nccc1NC(=O)c1cnc2c(C(F)(F)F)cccc2c1O
Qualifier sign: =
Recorded measurement: 50

Molecule: CCCCC(O)c1nc2c(C(F)(F)F)cccc2c(O)c1C(=O)Nc1nccs1 (stereo unspecified)
Qualifier sign: ≥
Recorded measurement: 100

Molecule: O=C(Nc1nccs1)c1c(C(F)(F)F)nc2ccccc2c1O
Qualifier sign: =
Recorded measurement: 8
